biological target: T1, apical domain of cynomolgus CD71 (cynomolgus, UniProt A0A2K5X958 189-383); experiment: primary ELISA, signal ratio to HSA
T1 construct: domain: apical domain; also called Cyno apical domain
T1 sequence (A0A2K5X958 entry or part of it): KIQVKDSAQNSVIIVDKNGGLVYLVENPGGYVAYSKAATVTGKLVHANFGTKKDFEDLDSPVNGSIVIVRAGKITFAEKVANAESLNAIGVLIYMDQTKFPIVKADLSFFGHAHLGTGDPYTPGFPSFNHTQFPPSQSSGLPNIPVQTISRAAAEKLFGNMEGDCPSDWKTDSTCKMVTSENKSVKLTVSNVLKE
I'd appreciate it if you could supply Cyno apical domain:HSA values for the items below.
The response must contain the number and no unit.

Given CD71-binding FN3 domain of SEQ ID NO: 215 (designed binder) MSLPAPKNLVVSRVTEDSARLSWTAPDAAFDSLEIGYFENLYLGEAIVLTVPGSERSYDLTGLKPGTEYWVQIGGVKGGNWSAPLSAIFTT , state its recorded Cyno apical domain:HSA. 71

Requested read-out: Cyno apical domain:HSA. Entry: CD71-binding FN3 domain of SEQ ID NO: 181 (designed binder) MSLPAPKNLVVSRVTEDSARLSWTAPDAAFDSFEIGYFENDYFGEAIVLTVPGSERSYDLTGLKPGTEYWVQIGGVKGGNWSAPLSAIFTT 216

Given the entry CD71-binding FN3 domain of SEQ ID NO: 140 (designed binder) MSLPAPKNLVVSRVTEDSARLSWTAPDAAFDSFFIGYLEPQPPGEAIHLYVPGSERSYDLTGLKPGTEYNVTIQGVKGGFPSMPLSAIFTT , report its measured Cyno apical domain:HSA. 199

# get_value(readout='Cyno apical domain:HSA', item= CD71-binding FN3 domain of SEQ ID NO: 149 (designed binder) MSLPAPKNLVVSRVTEDSARLSWTAPDAAFDSFDIGYFELRYYGEAIVLTVPGSERSYDLTGLKPGTEYWVSIGGVKGGTYSAPLSAIFTT ) 455

Return reported Cyno apical domain:HSA; argument: CD71-binding FN3 domain of SEQ ID NO: 128 (designed binder) MSSLPAPKNLVVSRVTEDSARLSWTAPDAAFDSFEIGYFENLYLGEAIVLTVPGSERSYDLTGLKPGTEYWVQIGGVKGGNWSAPLSAIFTT 259

What value of measured Cyno apical domain:HSA is listed for CD71-binding FN3 domain of SEQ ID NO: 203 (designed binder) MSLPAPKNLVVSRVTEDFARLSWTAPDAAFDSFEIAYWEQSYTGEAIVLTVPGSERSYDLTGLKPGTEYFVHIGGVKGGVWSTPLSAIFTT ? 362

May I ask what Cyno apical domain:HSA has been recorded for CD71-binding FN3 domain of SEQ ID NO: 178 (designed binder) MGSLPAPKNLVVSRVTEDSARLSWTAPDAAFDSFFIGYLEPQPPGEAISLYVPGSERSYDLTGLKPGTEYNVTIQGVKGGFPSDPLVAHFTT ? 272

Would you mind telling me what Cyno apical domain:HSA value was observed for CD71-binding FN3 domain of SEQ ID NO: 122 (designed binder) MSLPAPKNLVVSRVTEDSARPSWTAPDAAFDSFEIGYFENLYLGEAIVLTVPGSERSYDLTGLKPGTEYYVHIGGVKGGIWSSPLSAYFTT ? 80

Which measured Cyno apical domain:HSA value corresponds to CD71-binding FN3 domain of SEQ ID NO: 136 (designed binder) MSLPAPKNLVVSRVTEDSARLSWTAPDAAFDSFEIDYVEFIFTGEAIGLIVPGSERSYDLTGLKPGTEYWVTIAGVKGGEWSTPLQAFLTT ? 298
